# assaySystem: Nuclear receptor ROR-alpha (Homo sapiens, UniProt P35398)
# Sequence (P35398 whole entry, the tested form may be a part): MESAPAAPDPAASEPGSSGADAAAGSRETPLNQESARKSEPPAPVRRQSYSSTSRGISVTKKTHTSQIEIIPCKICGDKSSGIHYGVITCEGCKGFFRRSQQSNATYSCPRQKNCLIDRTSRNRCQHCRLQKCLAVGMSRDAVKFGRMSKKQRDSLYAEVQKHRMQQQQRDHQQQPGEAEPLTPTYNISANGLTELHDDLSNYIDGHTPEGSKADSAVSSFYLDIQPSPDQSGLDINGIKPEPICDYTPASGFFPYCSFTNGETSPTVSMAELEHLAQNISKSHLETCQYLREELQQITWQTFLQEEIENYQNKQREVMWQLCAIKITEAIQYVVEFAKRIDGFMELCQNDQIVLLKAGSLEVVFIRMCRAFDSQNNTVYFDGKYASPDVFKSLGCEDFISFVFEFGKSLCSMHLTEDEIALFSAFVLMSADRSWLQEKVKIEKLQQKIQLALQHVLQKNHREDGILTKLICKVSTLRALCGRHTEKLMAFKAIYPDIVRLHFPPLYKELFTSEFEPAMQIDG
# protocol: Inverse agonist activity at ROR-alpha (unknown origin) expressed in Jurkat cells by gal4 reporter assay
pEC50: −log10 of the molar value.
observationType: pEC50

Short answer please: pEC50, Nuclear receptor ROR-alpha (Homo sapiens, UniProt P35398), entry `C[C@]1(c2ccc(F)cc2)CN(C(=O)C2CCN(C(=O)CC#N)CC2)C[C@H]1c1ccc(C(O)(C(F)(F)F)C(F)(F)F)cc1` < 4.40

----------
# protocol: Metabolic stability in mouse liver microsomes assessed as parent compound remaining incubated for 10 mins
# Assay type: ADME, Microsome
# recordedConditions: read-out: Stabilty
observationType: remaining at 10 min (%)
Give bare numbers, in %.

Take a look at these entries with their results.
[
  {
    "moleculeSmiles": "C[C@]1(c2ccc(F)cc2)CN(C(=O)NCc2ccccc2)C[C@H]1c1ccc(C(O)(C(F)(F)F)C(F)(F)F)cc1",
    "quantitativeReadout": 67
  },
  {
    "moleculeSmiles": "C[C@]1(c2ccc(F)cc2)CN(C(=O)C2CCN(C(N)=O)CC2)C[C@H]1c1ccc(C(O)(C(F)(F)F)C(F)(F)F)cc1",
    "quantitativeReadout": 100
  },
  {
    "moleculeSmiles": "C[C@]1(c2ccc(F)cc2)CN(C(=O)C2CCN(C(=O)CC#N)CC2)C[C@H]1c1ccc(C(O)(C(F)(F)F)C(F)(F)F)cc1",
    "quantitativeReadout": 79
  },
  {
    "moleculeSmiles": "C[C@]1(c2ccc(F)cc2)CN(C(=O)C2CCN(S(C)(=O)=O)CC2)C[C@H]1c1ccc(C(O)(C(F)(F)F)C(F)(F)F)cc1",
    "quantitativeReadout": 80
  },
  {
    "moleculeSmiles": "COCC(=O)N1CCC(C(=O)N2C[C@@H](c3ccc(C(O)(C(F)(F)F)C(F)(F)F)cc3)[C@@](C)(c3ccc(F)cc3)C2)CC1",
    "quantitativeReadout": 49
  }
]

// next entry
# get_value(readout='remaining at 10 min', item= `CC(=O)N1CCC(C(=O)N2C[C@@H](c3ccc(C(O)(C(F)(F)F)C(F)(F)F)cc3)[C@@](C)(c3ccccc3)C2)CC1` ) 75
